Biological target: Mitogen-activated protein kinase kinase kinase 5 (Homo sapiens, UniProt Q99683)
Sequence (Q99683 whole entry): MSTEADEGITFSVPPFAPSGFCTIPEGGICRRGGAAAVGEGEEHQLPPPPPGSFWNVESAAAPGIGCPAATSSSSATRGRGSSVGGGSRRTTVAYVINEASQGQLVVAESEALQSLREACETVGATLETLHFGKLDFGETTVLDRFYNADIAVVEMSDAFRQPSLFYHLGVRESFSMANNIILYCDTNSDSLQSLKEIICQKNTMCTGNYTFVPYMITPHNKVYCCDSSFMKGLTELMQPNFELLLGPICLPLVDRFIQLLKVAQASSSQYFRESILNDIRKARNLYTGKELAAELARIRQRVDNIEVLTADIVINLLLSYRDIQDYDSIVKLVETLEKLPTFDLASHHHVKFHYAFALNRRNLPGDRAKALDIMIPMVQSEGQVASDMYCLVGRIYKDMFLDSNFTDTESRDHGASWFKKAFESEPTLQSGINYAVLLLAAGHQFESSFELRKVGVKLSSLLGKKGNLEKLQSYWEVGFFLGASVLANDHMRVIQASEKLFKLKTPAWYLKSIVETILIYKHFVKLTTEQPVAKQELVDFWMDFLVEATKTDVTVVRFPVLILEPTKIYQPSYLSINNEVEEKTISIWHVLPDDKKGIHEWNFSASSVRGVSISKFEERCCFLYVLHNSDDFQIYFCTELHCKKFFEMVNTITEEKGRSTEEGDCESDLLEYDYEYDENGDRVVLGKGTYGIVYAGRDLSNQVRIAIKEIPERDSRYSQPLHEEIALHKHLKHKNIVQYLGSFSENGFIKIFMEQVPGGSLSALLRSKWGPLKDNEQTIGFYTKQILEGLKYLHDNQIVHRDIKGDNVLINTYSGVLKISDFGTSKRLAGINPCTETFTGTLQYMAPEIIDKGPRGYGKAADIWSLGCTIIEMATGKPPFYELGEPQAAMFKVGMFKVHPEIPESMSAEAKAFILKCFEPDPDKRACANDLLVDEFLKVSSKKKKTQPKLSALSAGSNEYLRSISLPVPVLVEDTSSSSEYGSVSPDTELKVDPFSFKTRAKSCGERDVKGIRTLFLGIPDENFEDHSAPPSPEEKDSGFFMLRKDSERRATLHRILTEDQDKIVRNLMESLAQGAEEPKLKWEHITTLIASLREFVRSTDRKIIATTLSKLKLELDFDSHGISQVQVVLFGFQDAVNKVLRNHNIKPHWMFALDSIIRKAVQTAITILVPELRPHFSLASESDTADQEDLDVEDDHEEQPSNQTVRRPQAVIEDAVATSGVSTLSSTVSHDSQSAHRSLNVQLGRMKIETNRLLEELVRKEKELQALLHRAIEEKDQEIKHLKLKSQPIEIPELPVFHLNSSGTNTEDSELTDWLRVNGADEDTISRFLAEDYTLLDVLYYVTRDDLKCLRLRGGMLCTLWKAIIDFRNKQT
Test: Inhibition of recombinant V5-tagged ASK1 (unknown origin) expressed in HEK293 cells assessed as reduction in ASK1 autophosphorylation at T838 residue after 1 hr by MSD assay
Type: cell-based
experimental-endpoint: IC50

1. O=C1Nc2cccc(n2)-c2nncn2C/C=C/COc2c(Br)cccc21 :: > 10000 nM
2. Cc1ccc2c(c1)C(=O)Nc1cccc(n1)-c1nncn1CCCCO2 :: ≤ 1000 nM

Now take the following compound into account.
Fill in: IC50 of `Cc1ncn(-c2ccc3c(c2)C(=O)Nc2cccc(n2)-c2nncn2CCCCO3)c1C` is ___
≤ 1000 nM

---

Target: Mitogen-activated protein kinase kinase kinase 5 (Homo sapiens, UniProt Q99683)
Assay: Inhibition of human ASK1 using MBP as substrate measured in presence of [gamma-33P]-ATP
pIC50: −log10 of the molar value.
The following compounds are shown together with reported pIC50 values.

1) Cc1ccc2c(c1)C(=O)Nc1cccc(n1)-c1nncn1CCCCO2 :: ≥ 7.00

Could you tell me which pIC50 is on file for `Cc1ncn(-c2ccc3c(c2)C(=O)Nc2cccc(n2)-c2nncn2CCCCO3)c1C` ?
≥ 7.00

---

Molecular target: Mitogen-activated protein kinase kinase kinase 5 (Homo sapiens, UniProt Q99683)
Test: Inhibition of full-length human GST-tagged ASK1 expressed in baculovirus expression system using biotinylated STK Substrate 3 preincubated for 10 mins followed by ATP addition and measured after 5 hrs by TR-FRET assay
pIC50: −log10 of the molar value.
Entries and their pIC50 values follow.

Some solved cases for reference:
1. Cc1ccc2c(c1)C(=O)Nc1cccc(n1)-c1nncn1CCCCO2 :: ≥ 7.00
2. Cc1ncn(-c2ccc3c(c2)C(=O)Nc2cccc(n2)-c2nncn2CCCCO3)c1C :: ≥ 7.00

We next turn to a different compound, shown below.
Given the entry `O=C1Nc2cccc(n2)-c2nncn2C/C=C/COc2c(Br)cccc21` , report its measured pIC50.
6.00 to 7.00
